Tested System: T1, human glucose-dependent insulinotropic polypeptide (GIP) receptor (human) (UniProt P48546)
T1 sequence (looked up): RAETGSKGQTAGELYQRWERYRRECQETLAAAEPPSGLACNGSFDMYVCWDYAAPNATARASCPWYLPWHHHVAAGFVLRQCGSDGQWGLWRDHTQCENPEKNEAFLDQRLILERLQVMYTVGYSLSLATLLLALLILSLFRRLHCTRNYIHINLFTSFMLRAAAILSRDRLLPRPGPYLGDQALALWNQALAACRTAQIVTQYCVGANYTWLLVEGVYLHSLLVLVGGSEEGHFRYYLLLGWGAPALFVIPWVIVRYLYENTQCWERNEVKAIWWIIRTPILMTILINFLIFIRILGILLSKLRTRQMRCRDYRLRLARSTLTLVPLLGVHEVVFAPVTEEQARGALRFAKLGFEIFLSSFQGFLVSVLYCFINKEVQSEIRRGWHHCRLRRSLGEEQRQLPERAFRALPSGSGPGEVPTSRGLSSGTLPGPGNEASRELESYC
Experiment Notes: cell-based or functional assay
Quantity Name: cAMP Emax (%)
Please reply with the bare figure in % and do not write the unit itself.

Exercise: Bench note: what cAMP Emax did YXEGTXTSDYXIXLDXKAQXEFIXXLIKGGPSSGAPPPS (Y-Aib-EGT-αMeF(2F)-TSDY-Aib-I-αMeL-LD-Orn-K((2-[2-(2-Amino-ethoxy)-ethoxy]-acetyl)2-(γ-Glu)-CO-(CH2)12-CO2H)AQ-Aib-EFI-(D-Glu)-αMeY-LIK((2-[2-(2-Amino-ethoxy)-ethoxy]-acetyl)2-(γ-Glu)-CO-(CH2)12-CO2H)GGPSSGAPPPS-NH2) [Example 231] show?
Key: 102

Exercise: Bench note: what cAMP Emax did YXEGTXTSDXXIXLDXIAQXKFIXXLIKGGPSSGAPPPS (Y-Aib-EGT-αMeF(2F)-TSD-4Pal-Aib-I-αMeL-LD-Orn-IAQ-Aib-K((2-[2-(2-Amino-ethoxy)-ethoxy]-acetyl)2-(γ-Glu)-(10-(4-carboxyphenoxy)decanoyl))FI-(D-Glu)-αMeY-LIK((2-[2-(2-Amino-ethoxy)-ethoxy]-acetyl)2-(γ-Glu)-(10-(4-carboxyphenoxy)decanoyl))GGPSSGAPPPS-NH2) [Example 247] show?
Key: 103

Exercise: Bench note: what cAMP Emax did YXEGTXTSDYXIXLDXKAQXKFIXXLIEGGPSSGAPPPS (Y-Aib-EGT-αMeF(2F)-TSDY-Aib-I-αMeL-LD-Orn-K((2-[2-(2-Amino-ethoxy)-ethoxy]-acetyl)2-(γ-Glu)-CO-(CH2)12-CO2H)AQ-Aib-K((2-[2-(2-Amino-ethoxy)-ethoxy]-acetyl)2-(γ-Glu)-CO-(CH2)12-CO2H)FI-(D-Glu)-αMeY-LIEGGPSSGAPPPS-NH2) [Example 230] show?
Key: 105

Exercise: Bench note: what cAMP Emax did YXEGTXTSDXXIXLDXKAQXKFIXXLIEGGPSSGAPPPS (Y-Aib-EGT-αMeF(2F)-TSD-4Pal-Aib-I-αMeL-LD-Orn-K((2-[2-(2-Amino-ethoxy)-ethoxy]-acetyl)2-(γ-Glu)-(10-(4-carboxyphenoxy)decanoyl))AQ-Aib-K((2-[2-(2-Amino-ethoxy)-ethoxy]-acetyl)2-(γ-Glu)-(10-(4-carboxyphenoxy)decanoyl))FI-(D-Glu)-αMeY-LIEGGPSSGAPPPS-NH2) [Example 243] show?
Key: 101

Exercise: Bench note: what cAMP Emax did YXEGTXTSDYXIXLDXIAQXKFIXXLIKGGPSSGAPPPS (Y-Aib-EGT-αMeF(2F)-TSDY-Aib-I-αMeL-LD-Orn-IAQ-Aib-K((2-[2-(2-Amino-ethoxy)-ethoxy]-acetyl)2-(γ-Glu)-CO-(CH2)12-CO2H)Fl-(D-Glu)-αMeY-LIK((2-[2-(2-Amino-ethoxy)-ethoxy]-acetyl)2-(γ-Glu)-CO-(CH2)12-CO2H)GGPSSGAPPPS-NH2) [Example 234] show?
Key: 107

Exercise: Bench note: what cAMP Emax did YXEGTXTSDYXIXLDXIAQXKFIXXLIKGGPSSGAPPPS (Y-Aib-EGT-αMeF(2F)-TSDY-Aib-I-αMeL-LD-Orn-IAQ-Aib-K((2-[2-(2-Amino-ethoxy)-ethoxy]-acetyl)2-(γ-Glu)-(10-(4-carboxyphenoxy)decanoyl))FI-(D-Glu)-αMeY-LIK((2-[2-(2-Amino-ethoxy)-ethoxy]-acetyl)2-(γ-Glu)-(10-(4-carboxyphenoxy)decanoyl))GGPSSGAPPPS-NH2) [Example 240] show?
Key: 99.1

Exercise: Bench note: what cAMP Emax did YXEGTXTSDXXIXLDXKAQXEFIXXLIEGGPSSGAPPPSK (Y-Aib-EGT-αMeF(2F)-TSD-4Pal-Aib-I-αMeL-LD-Orn-K((2-[2-(2-Amino-ethoxy)-ethoxy]-acetyl)2-(γ-Glu)-(10-(4-carboxyphenoxy)decanoyl))AQ-Aib-EFI-(D-Glu)-αMeY-LIEGGPSSGAPPPSK((2-[2-(2-Amino-ethoxy)-ethoxy]-acetyl)2-(γ-Glu)-(10-(4-carboxyphenoxy)decanoyl))-NH2) [Example 245] show?
Key: 96.7

Exercise: Bench note: what cAMP Emax did YXEGTXTSDXSIXLDXIAQXEFIXXLIKGGPSSGAPPPSK (Y-Aib-EGT-αMeF(2F)-TSD-4Pal-SI-αMeL-LD-Orn-IAQ-Aib-EFI-(D-Glu)-αMeY-LIK((2-[2-(2-Amino-ethoxy)-ethoxy]-acetyl)3-(γ-Glu)-CO-(CH2)12-CO2H)GGPSSGAPPPSK((2-[2-(2-Amino-ethoxy)-ethoxy]-acetyl)3-(γ-Glu)-CO-(CH2)12-CO2H)-NH2) [Example 229] show?
Key: 103

Exercise: Bench note: what cAMP Emax did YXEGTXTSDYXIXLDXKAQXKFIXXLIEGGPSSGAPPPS (Y-Aib-EGT-αMeF(2F)-TSDY-Aib-I-αMeL-LD-Orn-K((2-[2-(2-Amino-ethoxy)-ethoxy]-acetyl)2-(γ-Glu)-(10-(4-carboxyphenoxy)decanoyl))AQ-Aib-K((2-[2-(2-Amino-ethoxy)-ethoxy]-acetyl)2-(γ-Glu)-(10-(4-carboxyphenoxy)decanoyl))FI-(D-Glu)-αMeY-LIEGGPSSGAPPPS-NH2) [Example 236] show?
Key: 104

Exercise: Bench note: what cAMP Emax did YXEGTXTSDXXIXLDXIAQXKFIXXLIEGGPSSGAPPPSK (Y-Aib-EGT-αMeF(2F)-TSD-4Pal-Aib-I-αMeL-LD-Orn-IAQ-Aib-K(2-[2-(2-Amino-ethoxy)-ethoxy]-acetyl)2-(γ-Glu)-(11-(4-carboxyphenoxy)undecanoyl)FI-(D-Glu)-αMeY-LIEGGPSSGAPPPSK((2-[2-(2-Amino-ethoxy)-ethoxy]-acetyl)2-(γ-Glu)-(11-(4-carboxyphenoxy)undecanoyl)-NH2)) [Example 242] show?
Key: 100

Exercise: Bench note: what cAMP Emax did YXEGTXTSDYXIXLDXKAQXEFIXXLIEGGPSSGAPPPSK (Y-Aib-EGT-αMeF(2F)-TSDY-Aib-I-αMeL-LD-Orn-K((2-[2-(2-Amino-ethoxy)-ethoxy]-acetyl)2-(γ-Glu)-CO-(CH2)12-CO2H)AQ-Aib-EFI-(D-Glu)-αMeY-LIEGGPSSGAPPPSK((2-[2-(2-Amino-ethoxy)-ethoxyl-acetyl)2-(γ-Glu)-CO-(CH2)12-CO2H)-NH2) [Example 232] show?
Key: 101

Exercise: Bench note: what cAMP Emax did YXEGTXTSDYXIXLDXIAQXKFIXXLIEGGPSSGAPPPSK (Y-Aib-EGT-αMeF(2F)-TSDY-Aib-I-αMeL-LD-Orn-IAQ-Aib-K((2-[2-(2-Amino-ethoxy)-ethoxy]-acetyl)2-(γ-Glu)-(10-(4-carboxyphenoxy)decanoyl))FI-(D-Glu)-αMeY-LIEGGPSSGAPPPSK((2-[2-(2-Amino-ethoxy)-ethoxy]-acetyl)2-(γ-Glu)-(10-(4-carboxyphenoxy)decanoyl))-NH2) [Example 241] show?
Key: 105

Exercise: Bench note: what cAMP Emax did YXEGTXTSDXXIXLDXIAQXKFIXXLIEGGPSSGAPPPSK (Y-Aib-EGT-αMeF(2F)-TSD-4Pal-Aib-I-αMeL-LD-Orn-IAQ-Aib-K((2-[2-(2-Amino-ethoxy)-ethoxy]-acetyl)2-(γ-Glu)-(10-(4-carboxyphenoxy)decanoyl))FI-(D-Glu)-αMeY-LIEGGPSSGAPPPSK((2-[2-(2-Amino-ethoxy)-ethoxy]-acetyl)2-(γ-Glu)-(10-(4-carboxyphenoxy)decanoyl))-NH2) [Example 248] show?
Key: 99.2

// data source = patent US20230265151A1
